Test: Acute toxicity in mice (LD50)
Assay type: in vivo
Conditions: mouse, in vivo, ip; mice, i.p.; death rate 7 days after administration; read-out: Mice LD50 i.p.
Where a name gives a salt, the structure may show the parent alone.

{"columns": ["MOLECULE", "LD50 at 168 h"],
 "data": [
  ["COc1ccc(C(C#N)(CCCN(C)CCN(C)C(=O)c2cccc3c(=O)c(C)c(-c4ccccc4)oc23)C(C)C)cc1OC.Cl.O (stereo not drawn) [Example 14]", "159 mg/kg"],
  ["COc1ccc(CC[N+](C)([O-])CCCOC(=O)c2cccc3c(=O)c(C)c(-c4ccccc4)oc23)cc1OC (stereo not drawn) [Example 3, hydrochloride]", "> 1000 mg/kg"],
  ["COc1ccc(CCN(C)CCCNC(=O)c2cccc3c(=O)c(C)c(-c4ccccc4)oc23)cc1OC [Example 12]", "129 mg/kg"],
  ["COc1ccc(C(C#N)(CCCN(C)CC(=O)c2cccc3c(=O)c(C)c(-c4ccccc4)oc23)C(C)C)cc1OC.Cl.O (stereo not drawn) [Example 1]", "475 mg/kg"],
  ["COc1ccc(C(C#N)(CCCN(C)CCS(=O)(=O)Cc2cccc3c(=O)c(C)c(-c4ccccc4)oc23)C(C)C)cc1OC (stereo not drawn) [Example 20, hydrochloride hemihydrate]", "> 1000 mg/kg"],
  ["COc1ccc(CC2c3cc(OC)c(OC)cc3CCN2CCCOC(=O)c2cccc3c(=O)c(C)c(-c4ccccc4)oc23)cc1OC (stereo not drawn) [Example 7, hydrochloride]", "> 1000 mg/kg"]
]}
